- Test system: BT-549 breast
- Procedure summary: NCI-60 one-dose screen, 48 h
- Details: 10 µM unless noted
Compounds without any hit were thinned out: in the full panel of roughly 83,000, 20% have a hit. The source made the active and inactive calls. The calls were made as follows: active = growth percent below 10; inactive = the rest.
Just give me one of these, please: active, inactive

Examples from the recorded data:
1) CCCCNCCC(O)c1cc2ccc(C(F)(F)F)cc2c2cc(C(F)(F)F)ccc12 (stereo not drawn)
active
2) CCOC(C)(c1ccc(Cl)cc1)C1CCNCC1 (stereo not drawn)
inactive
3) C[C@@H]1C[C@H](N)C[C@H](c2ccncc2NC(=O)c2ccc(F)c(-c3c(F)cccc3F)n2)C1
inactive

We next turn to a different molecule, shown below.
## Input Check the results log: what was the call for CCCCCCCCCC1=NC(C)(C)CN1C(C)(C)CO ?
## Output inactive

----------
- Test system: NCI/ADR-RES ovarian
- Procedure summary: NCI-60 one-dose screen, 48 h (100 = growth as untreated, 0 = no growth, -100 = all killed)
- Details: 10 µM unless noted
This is part of a sample that, as a whole, favours compounds with a hit. Of some 83,000 tested, about 20% had one in any assay.
So basically: is growth under 90%? Then yes (1). Not under? Then no (0).

Examples from the recorded data:
1. Cc1ccc(NC(=O)c2nc(S(C)=O)oc2-c2ccc(F)cc2)cc1Nc1nccc(-c2cccnc2)n1 (stereo not given)
no (0)
2. O=C(/C=C/c1ccccc1)C(Br)C(Br)c1ccccc1 (stereo not given)
yes (1)

## Input Bench note: check whether CN1CCN(Cc2ccc(NC(=O)c3cnc(F)c(C#Cc4cnc(N)c5ncccc45)c3)cc2C(F)(F)F)CC1 shows growth below 90%
## Output yes (1)

## Input Bench note: check whether C=CCn1c(C)nc2cc(Nc3nc(Nc4ccc5nc(C)n(CC=C)c5c4)nc4ccccc34)ccc21 shows growth below 90%
## Output no (0)

## Input Bench note: check whether COc1cc(Nc2ccnc3ccc(Br)cc23)cc(OC)c1OC shows growth below 90%
## Output yes (1)

## Input Bench note: check whether CC[C@H](Nc1nc(C)nc(N)c1C#N)c1nc2cccc(NCc3ccc(C(=O)NO)cc3)c2c(=O)n1-c1ccccc1 shows growth below 90%
## Output yes (1)

## Input Bench note: check whether O=NN(CC(=O)NNc1ccccc1)CC(=O)NNc1ccccc1 shows growth below 90%
## Output yes (1)

## Input Bench note: check whether Cc1cc(C#Cc2ccccc2)ccc1-n1c(/C=C/c2ccc(F)cc2)nc2ccccc2c1=O shows growth below 90%
## Output yes (1)

## Input Bench note: check whether CN1CCN(Cc2ccc(NC(=O)c3cncc(C#Cc4ncc5ccccn45)c3)cc2C(F)(F)F)CC1 shows growth below 90%
## Output yes (1)

## Input Bench note: check whether COc1cc(C)c2c(=O)c3c(oc2c1)C(=O)c1c(O)c(OC)cc(O)c1C3=O shows growth below 90%
## Output yes (1)

## Input Bench note: check whether CCOc1c(C#N)c2c(N)ncnc2n1C1OC(CO)C(O)C1O (stereo not given) shows growth below 90%
## Output yes (1)

## Input Bench note: check whether CC(=O)O[C@H]1[C@H](CC#CC#CC[C@@H]2C[C@]3(C)[C@H]4CC=C5[C@H]6[C@@H](C)[C@H](C)CC[C@]6(C(=O)NCCN(CCN)CCN)CC[C@@]5(C)[C@]4(C)CC[C@H]3C(C)(C)[C@H]2OC(C)=O)C[C@]2(C)[C@H]3CC=C4[C@H]5[C@@H](C)[C@H](C)CC[C@]5(C(=O)NCCN(CCN)CCN)CC[C@@]4(C)[C@]3(C)CC[C@H]2C1(C)C shows growth below 90%
## Output yes (1)

## Input Bench note: check whether N=C(N)c1ccc(-c2ccc(-c3cc(Cl)cc(Cl)c3)o2)nc1 shows growth below 90%
## Output yes (1)

## Input Bench note: check whether Oc1[nH]c2ccc(Cl)cc2c1/C=c1/ccc2c(c1)N=C(c1ccc(F)cc1)N=2 shows growth below 90%
## Output yes (1)

## Input Bench note: check whether c1ccc2c(c1)cnc1ccccc12 shows growth below 90%
## Output no (0)

## Input Bench note: check whether FC(F)(F)c1ccc(/C=N/Nc2nnc3n2N=C(c2ccc(Cl)cc2)CS3)cc1 shows growth below 90%
## Output yes (1)

## Input Bench note: check whether Cn1nc(C(F)(F)F)cc1-c1c[nH]c(OCc2ccc(Cl)cc2)c(-c2ccc(Cl)c(C(F)(F)F)c2)c1=O shows growth below 90%
## Output yes (1)

## Input Bench note: check whether COC(=O)C1(C)COP(=O)(NC23CC4CC(CC(C4)C2)C3)OC1 (stereo not given) shows growth below 90%
## Output no (0)

## Input Bench note: check whether NC(N)=N/N=C\c1cccc(OCc2ccccc2)c1 shows growth below 90%
## Output yes (1)

## Input Bench note: check whether CC1(C)C2CCC(O)(C(=O)O)C1C2 (stereo not given) shows growth below 90%
## Output no (0)

## Input Bench note: check whether N[C@@H](CO)C(=O)O shows growth below 90%
## Output no (0)

## Input Bench note: check whether NC(=O)c1noc(C(=O)c2ccccc2)c1N shows growth below 90%
## Output no (0)

## Input Bench note: check whether CCSc1ccc([C@@H]2[C@@H](N)C(=O)N2c2cc(OC)c(OC)c(OC)c2)cc1 shows growth below 90%
## Output yes (1)
